System: U2OS
Protocol: Multiplex assay against U2OS
Format: toxicity, cell-based
Assay Conditions: human, 12 h, 1 µM, compound concentration 1 uM, replicate 2
Measured Quantity: Population Mitotic Cells (%)
Express the result in % but write the number alone.

-- ask Report Population Mitotic Cells (%) for CCCOc1ccc2[nH]cc(C3=CCNCC3)c2n1.Cl please.
-- reply 12

-- ask Report Population Mitotic Cells (%) for Cl.NCCc1ccc(O)c(O)c1 [DOPAMINE HYDROCHLORIDE] please.
-- reply 16

-- ask Report Population Mitotic Cells (%) for CC(C)(C)c1cc(NC(=O)Nc2ccc(-c3cn4c(n3)sc3cc(OCCN5CCOCC5)ccc34)cc2)no1 [QUIZARTINIB] please.
-- reply 21

-- ask Report Population Mitotic Cells (%) for CCCCCC(O)/C=C/[C@H]1C(=O)CC(O)C1C/C=C\CCCC(=O)O (stereo not given in full) please.
-- reply 11

-- ask Report Population Mitotic Cells (%) for COc1ccccc1N1CCN(C[C@@H](C(=O)NC(C)(C)C)c2ccccc2)CC1.Cl.Cl please.
-- reply 33

====

Task for the reader: assign each of the following compounds its reported Population Membrane Permeable-Phenotype (%).
Tested on: U2OS
Protocol: Multiplex assay against U2OS
Assay type: toxicity, cell-based
Assay Conditions: human, 48 h, 10 µM, compound concentration 10 uM, replicate 2
Express the result in % but write the number alone.

-- ask Report Population Membrane Permeable-Phenotype (%) for Cc1c(CC(=O)O)c2cccnc2n1Cc1ccc(S(C)(=O)=O)cc1C(F)(F)F please.
-- reply 5

-- ask Report Population Membrane Permeable-Phenotype (%) for C[C@H](N)COC(=O)[C@@H](CCCCN)NC(=O)Cc1c(-c2ccc3ccccc3c2)[nH]c2c1ccc1ccccc12 please.
-- reply 16

-- ask Report Population Membrane Permeable-Phenotype (%) for CCc1cc2cc(NS(=O)(=O)c3ccc(C#N)cc3)ccc2n(CC)c1=O please.
-- reply 8

====

System: U2OS
Protocol: Multiplex assay against U2OS
Type: toxicity, cell-based
Assay Conditions: human, 12 h, 10 µM, compound concentration 10 uM, replicate 1
Task for the reader: assign each of the following compounds its reported Total Cell Count.

-- ask Report Total Cell Count for C[C@H](N)COC(=O)[C@@H](CCCCN)NC(=O)Cc1c(-c2ccc3ccccc3c2)[nH]c2c1ccc1ccccc12 please.
-- reply 279

-- ask Report Total Cell Count for Cc1noc(-c2ccc(-c3ccc(CC(=O)O)cc3)cc2)c1NC(=O)O[C@H](C)c1ccccc1Cl please.
-- reply 242

-- ask Report Total Cell Count for CC(=O)Nc1cccc2c1c(Sc1ccc(Cl)cc1)c(C)n2CC(=O)O [AZD1981] please.
-- reply 231

-- ask Report Total Cell Count for CCCCC1=NC2(CCCC2)C(=O)N1Cc1ccc(-c2ccccc2-c2nnn[nH]2)cc1 [IRBESARTAN] please.
-- reply 254

====

Task for the reader: assign each of the following compounds its reported Population Fragmented Nuclei (%).
System: U2OS
Protocol: Multiplex assay against U2OS
Format: toxicity, cell-based
Assay Conditions: human, 24 h, 1 µM, compound concentration 1 uM, replicate 1
Express the result in % but write the number alone.

-- ask API: value(readout=Population Fragmented Nuclei (%), system=U2OS) for record CCCCC(=O)N(Cc1ccc(-c2ccccc2-c2nnn[nH]2)cc1)[C@H](C(=O)O)C(C)C
-- reply 23

-- ask API: value(readout=Population Fragmented Nuclei (%), system=U2OS) for record Cc1c(CC(=O)O)c2cccnc2n1Cc1ccc(S(C)(=O)=O)cc1C(F)(F)F
-- reply 20

-- ask API: value(readout=Population Fragmented Nuclei (%), system=U2OS) for record Cl.N=C(N)NC(=O)Cc1c(Cl)cccc1Cl [GUANFACINE HYDROCHLORIDE]
-- reply 32

-- ask API: value(readout=Population Fragmented Nuclei (%), system=U2OS) for record CCc1cc2cc(NS(=O)(=O)c3ccc(C#N)cc3)ccc2n(CC)c1=O
-- reply 29

-- ask API: value(readout=Population Fragmented Nuclei (%), system=U2OS) for record Cc1cccc(NC(=O)CN2CCC(c3ccccn3)CC2)c1.Cl.Cl
-- reply 22

-- ask API: value(readout=Population Fragmented Nuclei (%), system=U2OS) for record CCCOc1ccc2[nH]cc(C3=CCNCC3)c2n1.Cl
-- reply 27
